FYI, the data here is from ChEMBL document CHEMBL4610060.

# Protocol Text: Volume of distribution at steady state in Sprague-Dawley rat at 0.72 mg/kg, iv or 1.44 mg/kg, po measured upto 24 hrs by LC-MS/MS analysis
# Assay type: ADME, organism-based
# Condition Summary: in vivo, read-out: Vdss
Measured Endpoint: Vd (L/kg)
State the answer as a number, implicitly in L/kg.

Ask | Given COC(=O)Nc1ccc2c(c1)N[C@@H](C(F)(F)F)CCCC[C@H](NC(=O)/C=C/c1cc(Cl)ccc1-n1cnnn1)c1nc-2c[nH]1 , state its recorded Vd.
Reply | 0.4

###

In this section, each of the compounds is paired with its reported bioavailability.
# Protocol Text: Oral bioavailability in Sprague-Dawley rat at 1.0 mg/kg measured upto 24 hrs by LC-MS/MS analysis
# Type: ADME, organism-based
# Condition Summary: in vivo
State the answer as a number, implicitly in %.

>>> df
                            smiles_notation  measured_endpoint  observed_measurement
0  CCOC(=O)[C@H]1CCCC[C@H](NC(=O)/C=C/c2cc(Cl)ccc2-n2cnnn2)c2nc(c[nH]2)-c2ccc(NC(=O)OC)cc2N1    bioavailability                     7

Attention now shifts to the item below.
Ask | Given CCOC(=O)[C@H]1CCCC[C@H](NC(=O)/C=C/c2cc(Cl)ccc2-n2cnnn2)c2cc(ccn2)-c2ccc(NC(=O)OC)cc2N1 , state its recorded bioavailability.
Reply | 41

###

# Protocol Text: Oral bioavailability in Sprague-Dawley rat at 2.27 mg/kg measured upto 24 hrs by LC-MS/MS analysis
# Type: ADME, organism-based
# Condition Summary: in vivo
Measured Endpoint: bioavailability

Ask | Given COC(=O)Nc1ccc2c(c1)NC(=O)CCCC[C@H](NC(=O)/C=C/c1cc(Cl)ccc1-n1cnnn1)c1nc-2c[nH]1 , state its recorded bioavailability.
Reply | < 1%

###

# Protocol Text: Oral bioavailability in Sprague-Dawley rat at 0.61 mg/kg measured upto 24 hrs by LC-MS/MS analysis
# Format: ADME, organism-based
# Condition Summary: in vivo
Measured Endpoint: bioavailability

Ask | Given O=C(/C=C/c1cc(Cl)ccc1-n1cnnn1)N[C@H]1CCCCC(=O)Nc2ccccc2-c2c[nH]c1n2 , state its recorded bioavailability.
Reply | < 1%

###

# Protocol Text: Volume of distribution at steady state in Sprague-Dawley rat at 0.53 mg/kg, iv or 1.06 mg/kg, po measured upto 24 hrs by LC-MS/MS analysis
# Assay type: ADME, organism-based
# Condition Summary: in vivo, read-out: Vdss
Measured Endpoint: Vd (L/kg)
State the answer as a number, implicitly in L/kg.

Ask | Given COC(=O)Nc1ccc2c(c1)N[C@@H](C(=O)OC)CCCC[C@H](NC(=O)/C=C/c1cc(Cl)ccc1-n1cnnn1)c1nc-2c[nH]1 , state its recorded Vd.
Reply | 0.3

###

# Protocol Text: Clearance in Sprague-Dawley rat at 0.72 mg/kg, iv or 1.44 mg/kg, po measured upto 24 hrs by LC-MS/MS analysis
# Format: ADME, organism-based
# Condition Summary: in vivo
Measured Endpoint: clearance
Note: a bare number is incomplete; add the unit.

Ask | Given COC(=O)Nc1ccc2c(c1)N[C@@H](C(F)(F)F)CCCC[C@H](NC(=O)/C=C/c1cc(Cl)ccc1-n1cnnn1)c1nc-2c[nH]1 , state its recorded clearance.
Reply | 12 mL/min/kg

###

# Protocol Text: AUC in Sprague-Dawley rat at 1.44 mg/kg, po measured upto 24 hrs by LC-MS/MS analysis
# Assay type: ADME, organism-based
# Parameters: time < 24 hr, dose 1.44 mg/kg, route oral
# Condition Summary: in vivo
Measured Endpoint: AUC at 24 h (µM·h)
State the answer as a number, implicitly in µM·h.

Ask | Given COC(=O)Nc1ccc2c(c1)N[C@@H](C(F)(F)F)CCCC[C@H](NC(=O)/C=C/c1cc(Cl)ccc1-n1cnnn1)c1nc-2c[nH]1 , state its recorded AUC at 24 h.
Reply | 0.307

###

# Protocol Text: Metabolic stability in human liver microsomes assessed as half life
# Assay type: ADME, Microsome
In this section, each of the molecules is paired with its reported half-life.
State the answer as a number, implicitly in h.

>>> print(df.to_string())
                            smiles_notation  measured_endpoint  observed_measurement
0  O=C(/C=C/c1cc(Cl)ccc1-n1cnnn1)N[C@H]1C/C=C/CCC(=O)Nc2ccc(C(=O)O)cc2-c2c[nH]c1n2          half-life                  1.57
1  CCOC(=O)[C@H]1CCCC[C@H](NC(=O)/C=C/c2cc(Cl)ccc2-n2cnnn2)c2cc(ccn2)-c2ccc(NC(=O)OC)cc2N1          half-life                   0.5

Ask | Given COC(=O)Nc1ccc2c(c1)N[C@@H](C(=O)OC)CCCC[C@H](NC(=O)/C=C/c1cc(Cl)ccc1-n1cnnn1)c1cc-2ccn1 , state its recorded half-life.
Reply | 1.85

Ask | Continue with COC(=O)Nc1ccc2c(c1)N[C@@H](C(F)(F)F)CC/C=C/C[C@H](NC(=O)/C=C/c1cc(Cl)ccc1-n1cnnn1)c1nc-2c[nH]1
Reply | 0.483

###

In this section, each of the compounds is paired with its reported half-life.
# Protocol Text: Metabolic stability in human liver microsomes assessed as half life
# Assay type: ADME, Microsome
State the answer as a number, implicitly in min.

// below: answered compounds
>>> print(df.to_string())
                            smiles_notation  unit_abbrev  observed_measurement
0  CCOC(=O)[C@H]1CCCC[C@H](NC(=O)/C=C/c2cc(Cl)ccc2-n2cnnn2)c2nc(c[nH]2)-c2ccc(NC(=O)OC)cc2N1          min                     7
1  COC(=O)Nc1ccc2c(c1)N[C@@H](CO)CCCC[C@H](NC(=O)/C=C/c1cc(Cl)ccc1-n1cnnn1)c1nc-2c[nH]1          min                    10
2  O=C(/C=C/c1cc(Cl)ccc1-n1cnnn1)N[C@H]1C/C=C/CCC(=O)Nc2ccc(F)cc2-c2c[nH]c1n2          min                     2

Ask | Given COC(=O)Nc1ccc2c(c1)N[C@@H](C(=O)N(C)C)CCCC[C@H](NC(=O)/C=C/c1cc(Cl)ccc1-n1cnnn1)c1nc-2c[nH]1 , state its recorded half-life.
Reply | 14

###

# Protocol Text: Metabolic stability in human liver microsomes assessed as half life
# Assay type: ADME, Microsome
Measured Endpoint: log10(half-life) (log10 of the value in min)
Values reflect log10 of reported half-life (min).

>>> df
                            smiles_notation  observed_measurement
0  O=C(/C=C/c1cc(Cl)ccc1-n1cnnn1)N[C@H]1C/C=C/CCC(=O)Nc2cc(F)ccc2-c2c[nH]c1n2                  0.48
1  COC(=O)Nc1ccc2c(c1)NCCCCC[C@H](NC(=O)/C=C/c1cc(Cl)ccc1-n1cnnn1)c1nc-2c[nH]1                  0.78
2  O=C(/C=C/c1cc(Cl)ccc1-n1cnnn1)N[C@H]1CCCCC(=O)Nc2ccccc2-c2c[nH]c1n2                  0.78
3  COC(=O)Nc1ccc2c(c1)N[C@@H](C(F)(F)F)CCCC[C@H](NC(=O)/C=C/c1cc(Cl)ccc1-n1cnnn1)c1nc-2c[nH]1                  1.73
4  COC(=O)Nc1ccc2c(c1)N[C@@H](C(=O)OC)CCCC[C@H](NC(=O)/C=C/c1cc(Cl)ccc1-n1cnnn1)c1nc-2c[nH]1                  1.00
5  COC(=O)C[C@H]1CCCC[C@H](NC(=O)/C=C/c2cc(Cl)ccc2-n2cnnn2)c2nc(c[nH]2)-c2ccc(NC(=O)OC)cc2N1                  0.60
6  COC(=O)Nc1ccc2c(c1)N[C@@H](C)CCCC[C@H](NC(=O)/C=C/c1cc(Cl)ccc1-n1cnnn1)c1nc-2c[nH]1                  0.85

Ask | Given COC(=O)Nc1ccc2c(c1)N[C@@H](C(=O)O)CCCC[C@H](NC(=O)/C=C/c1cc(Cl)ccc1-n1cnnn1)c1nc-2c[nH]1 , state its recorded log10(half-life).
Reply | 1.85

###

# Protocol Text: Clearance in Sprague-Dawley rat at 0.31 mg/kg, iv or 0.61 mg/kg, po measured upto 24 hrs by LC-MS/MS analysis
# Assay type: ADME, organism-based
# Condition Summary: in vivo
Measured Endpoint: clearance (mL/min/kg)
State the answer as a number, implicitly in mL/min/kg.

Ask | Given O=C(/C=C/c1cc(Cl)ccc1-n1cnnn1)N[C@H]1CCCCC(=O)Nc2ccccc2-c2c[nH]c1n2 , state its recorded clearance.
Reply | 53
